This collection of values is drawn from PubChem BioAssay.

Assay: OD615 S. cerevisiae growth inhibition, permissive medium, pilot counter-assay, permissive growth control for S. cerevisiae lifespan shortening project (AID 705)
Conditions: OD615, 24 h, at 10 µM, active compounds read high
Would you mind telling me the reported growth inhibition of each entry?
One number for each entry, in %.

Some compounds with recorded growth inhibition:
1) O=C1CN(C(=O)COC(=O)C2CC(=O)N(Cc3ccco3)C2)c2ccccc2N1 (stereo unspecified) | -12
2) CCOC(=O)C1CCCN(Cc2nc(N)nc(Nc3ccccc3OC)n2)C1 (stereo unspecified) | -0.44
3) Cn1nnnc1SCc1nc2ccccc2[nH]1 | -7.39

Give one value of growth inhibition per listed compound.
1. CCCc1nnc(NC(=O)CCC(=O)O)s1
2. CC(C)(C)c1ccc(-c2cc(N)n[nH]2)cc1
3. Cn1c(=O)c2c(SCC(=O)N3CCC(Cc4ccccc4)CC3)nc(C3CC3)nc2n(C)c1=O
4. CCOc1cc(C#N)c(NC(=O)c2ccnn2C)cc1OCC
5. CC1(C)Nc2ccccc2N(CCC(=O)N2CCOCC2)C1=O
6. Cn1cc(CC(=O)NCCCN2CCCC2=O)c2ccccc21
7. Cc1n[nH]c(C)c1S(=O)(=O)N(CC(=O)NC1CCCC1)c1ccc(C(C)C)cc1
8. Cc1ccccc1NC(=O)CSc1[nH]c(=O)cc(C)c1C#N

[-4.72, 2.28, -0.44, 8.46, -13.2, -3.36, -7.41, -1.3]

Give one value of growth inhibition per listed compound.
1. O=C(c1cnccn1)N(c1ccccc1)C1(C(=O)NC2CCCCC2)CCCCC1
2. O=C1CC(c2ccco2)CC2=C1C1c3ccccc3C(=O)N1c1ccccc1N2 (stereo unspecified)

[-6.44, -9.63]

Give one value of growth inhibition per listed compound.
1. CCOC(=O)CN1CC23C=CC(O2)C(C(=O)NC2CCCCCC2)C3C1=O (stereo unspecified)
2. COc1ccc(Cc2nnc(Nc3ccc(C)cc3C)[nH]c2=O)cc1
3. Cc1ccc(-c2nn3c(C)nnc3s2)cc1NC(=O)c1ccc(OC(C)C)cc1
4. COc1ccc(NC(=O)CN(c2cc(C)cc(C)c2)S(=O)(=O)c2c(C)noc2C)cc1

[-6.04, -10.4, 12.3, -19.1]

Give one value of growth inhibition per listed compound.
1. CCOC(=O)N1CCC(NC(=O)c2cnc3n(c2=O)CCS3)CC1
2. Cc1ccc(C(=O)NCCn2cc(SCC(=O)Nc3nnc(C)s3)c3ccccc32)cc1
3. CCN(CC)CCN=C1CCCc2ccccc2N1
4. CC1CCN(c2nc(-c3ccco3)c3c(c2C#N)CC(C)(C)OC3)CC1

-1
5.58
-1.96
-15

Give one value of growth inhibition per listed compound.
1. Oc1cnn(-c2ccccc2)c1
2. CCOC(=O)c1ccc(NS(=O)(=O)c2cc(-c3nnnn3CC)ccc2OC)cc1
3. COc1ccc(CNC(=O)c2cnn3c(C(F)F)cc(C)nc23)cc1OC
4. O=C(O)CCC(=O)c1ccc2c(c1)OCCO2

1. -0.88
2. -0.78
3. -6.09
4. -6.04

Give one value of growth inhibition per listed compound.
1. O=C(CSCCNS(=O)(=O)c1ccccc1)Nc1ccccc1
2. Cc1cccc(-c2nc(CS(=O)CC(=O)NCC3CCCO3)c(C)o2)c1 (stereo unspecified)
3. CCOC(=O)N1CCC(NC(=O)Cn2nc(Cc3ccncc3)c3ccccc3c2=O)CC1
4. CCOC(=O)N1CCC(NC(=O)c2ccc(NC(=O)C3CCCO3)cc2)CC1 (stereo unspecified)
5. Cc1csc2ncc(C(=O)Nc3ccc4c(c3)OCCO4)c(=O)n12
6. COc1cc(NC(=O)c2c(-c3ccccc3Cl)noc2C)c2ncccc2c1

-6.82
4.35
-6.68
-10.8
-13.1
-15.8

Give one value of growth inhibition per listed compound.
1. Cn1c(=O)oc2cc(S(=O)(=O)N3CCCC(C(=O)NCCN4CCOCC4)C3)ccc21 (stereo unspecified)
2. COc1ccc(OC)c2c(C)cc(NCCN3CCOCC3)nc12
3. COc1ccc2nc(NC(=O)C3COc4ccccc4O3)sc2c1 (stereo unspecified)
4. CCC(Oc1ccccc1)C(=O)Nc1cc(C)on1 (stereo unspecified)
5. COc1cc(OC)cc(C(=O)NCCn2ccc3ccccc32)c1
6. COc1ccccc1NC(=O)Cn1c(=O)n2nc(C)nc2c2ccccc21

-1
-14.7
-5.73
-8.55
-5.04
-11

Give one value of growth inhibition per listed compound.
1. CCOC(=O)C1CCN(S(=O)(=O)c2cccc3nonc23)CC1
2. COc1ccccc1NC(=O)CSc1nnnn1C
3. NC(=O)c1ccc(N2CCCCC2)c(N2C(=O)CCC2=O)c1
4. c1ccc(CNn2c(N3CCOCC3)nc3ccccc32)cc1
5. COc1ccc(F)cc1S(=O)(=O)Nc1ccc2c(c1)OCCO2
6. Cc1cc(NC(=O)CSc2c(C)[nH]c3ccccc23)no1
7. CC(=O)C1(O)C(C)CC2C3CCC4CC(O)CCC4(C)C3=CCC21C (stereo unspecified)
8. O=C(CSc1ncnc2c1oc1ccccc12)NCc1ccc(F)cc1

1. -5.04
2. -4.16
3. -4.77
4. -14.9
5. -3.12
6. -11.4
7. -8.11
8. -0.505

Which measured growth inhibition value corresponds to Cc1nnc(Nc2ccc3c(c2)OCO3)c2ccccc12 ? -10.6

====

Experiment: OD615 S. cerevisiae growth inhibition, permissive medium, pilot counter-assay, permissive growth control for S. cerevisiae lifespan shortening project (AID 705)
Details: OD615, 24 h, at 10 µM, active compounds read high
Would you mind telling me the reported growth inhibition of each entry?
Give bare numbers, in %.

Some molecules with recorded growth inhibition:
1. COc1ccccc1CNS(=O)(=O)c1ccc2c(c1)oc(=O)n2C | -4.47
2. CNC(=O)N(C1=NCC(C)(C)S1)c1ccc(F)c(Cl)c1 | -4.53
3. Cc1cccn2cc(-c3ccc(F)cc3)nc12 | 1.97
4. CCN(CC)C(=O)Cn1c(=O)n(-c2ccccc2)c(=O)n1CC(=O)N(CC)CC | -4.64
5. O=C(NCc1ccco1)C1CCN(S(=O)(=O)c2cccc3cccnc23)CC1 | 5.31

Give one value of growth inhibition per listed molecule.
1. CC(C)Cc1nc(C(N)=O)c2[nH]c(=O)n(-c3ccc(F)cc3)c2n1
2. CCC(C)Nc1ncnc2c1cnn2Cc1ccc(Cl)cc1 (stereo unspecified)
3. CCOC(=O)NCc1ccc(CNC(=O)OCC)cc1
4. C=C(C)Cn1c(NCCC)nc2c1c(=O)n(C)c(=O)n2C
5. Cc1cc(C)c(S(=O)(=O)NCCCN2CCOCC2)cc1Br
6. COc1cc(C(=O)Nc2ccc(S(=O)(=O)Nc3onc(C)c3C)cc2)cc(OC)c1OC
7. O=C(Cn1cc2c(n1)CCCC2)NCC1CCCO1 (stereo unspecified)
8. CCCCN(CC)CCNC(=O)c1cc2c(=O)n(C)c3ccccc3c2n1C

1. -21.3
2. -13.7
3. -9.67
4. -9.8
5. -7.38
6. -5.13
7. -2.07
8. 2.65

====

Assay: Restrictive medium S. cerevisiae growth inhibition, OD615, pilot screen of yeast lifespan reduction project, restrictive growth control (AID 706);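 note: modified DeaD lifespan yeast strain shifted to restrictive glucose medium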
Conditions: OD615, 48 h, at 10 µM, active compounds read high
Would you mind telling me the reported growth inhibition of each entry?
One number for each entry, in %.

1) Cc1ccccc1NCN1C(=O)C2C3C=CC(C3)C2C1=O (stereo not drawn) | -18.2

Give one value of growth inhibition per listed compound.
1. COc1cccc(C2=NOC(C(=O)N3CCN(C(=O)c4ccco4)CC3)C2)c1 (stereo not drawn)
2. Oc1cc(Cc2ccccc2)cnc1CN1CCOCC1

1: -4.4; 2: 2.83

Give one value of growth inhibition per listed compound.
1. CCOC(=O)c1ccccc1Nc1cc(C)nc2nc(C)nn12
2. Cc1ccc(C)c2[nH]c(=O)c(CCNC(=O)C(C)C)cc12
3. COc1ccc(O)c(C(=O)c2cnn(C(=O)c3cc(C)oc3C)c2)c1
4. CCN(CC)C(=O)Cn1c(=O)n(-c2ccccc2)c(=O)n1CC(=O)N(CC)CC
5. COc1ccc(CN2CCCCC2c2cccnc2)c(OC)c1C (stereo not drawn)
6. O=C1CC(c2ccco2)CC2=C1C1c3ccccc3C(=O)N1c1ccccc1N2 (stereo not drawn)

1. 9.16
2. -18.6
3. -11.3
4. 2.5
5. 0.92
6. -5.43

Give one value of growth inhibition per listed compound.
1. O=C(Cn1cnc2c(nnn2-c2ccccc2)c1=O)N1CCC(Cc2ccccc2)CC1
2. CCCOc1ccccc1C1NC(=O)NC(C)=C1C(=O)OCCOC(C)C (stereo not drawn)
3. CC(=O)Nc1ccc(NC(=O)CCC(=O)NCCO)cc1
4. Cc1ccc2oc(=O)n(CCOc3ccccc3Cl)c2c1
5. CCOC(=O)c1c(N=CN(C)C)c(C#N)n2c1CCC2

9.16
-13.2
-16.7
0.755
-6.7

Give one value of growth inhibition per listed compound.
1. COc1cccc(OCC(=O)N(Cc2nc(-c3ccc(Cl)cc3)no2)C(C)C)c1
2. CC1CN(c2cc(=O)n(Cc3ccc(F)cc3)c(=O)[nH]2)CC(C)O1 (stereo not drawn)
3. Cc1ccnc(N2C(=O)c3ccccc3C2Nc2ccc3c(c2)OCCO3)c1 (stereo not drawn)
4. O=C(NCS(=O)(=O)c1ccccc1)c1ccccc1

1: -2.81; 2: -6.42; 3: 3.42; 4: -4.22
